study_system: recombinant human β-Klotho (UniProt Q86Z14 53-996, biotinylated in the AlphaScreen assays (site not stated))
Sequence (Q86Z14 53-996): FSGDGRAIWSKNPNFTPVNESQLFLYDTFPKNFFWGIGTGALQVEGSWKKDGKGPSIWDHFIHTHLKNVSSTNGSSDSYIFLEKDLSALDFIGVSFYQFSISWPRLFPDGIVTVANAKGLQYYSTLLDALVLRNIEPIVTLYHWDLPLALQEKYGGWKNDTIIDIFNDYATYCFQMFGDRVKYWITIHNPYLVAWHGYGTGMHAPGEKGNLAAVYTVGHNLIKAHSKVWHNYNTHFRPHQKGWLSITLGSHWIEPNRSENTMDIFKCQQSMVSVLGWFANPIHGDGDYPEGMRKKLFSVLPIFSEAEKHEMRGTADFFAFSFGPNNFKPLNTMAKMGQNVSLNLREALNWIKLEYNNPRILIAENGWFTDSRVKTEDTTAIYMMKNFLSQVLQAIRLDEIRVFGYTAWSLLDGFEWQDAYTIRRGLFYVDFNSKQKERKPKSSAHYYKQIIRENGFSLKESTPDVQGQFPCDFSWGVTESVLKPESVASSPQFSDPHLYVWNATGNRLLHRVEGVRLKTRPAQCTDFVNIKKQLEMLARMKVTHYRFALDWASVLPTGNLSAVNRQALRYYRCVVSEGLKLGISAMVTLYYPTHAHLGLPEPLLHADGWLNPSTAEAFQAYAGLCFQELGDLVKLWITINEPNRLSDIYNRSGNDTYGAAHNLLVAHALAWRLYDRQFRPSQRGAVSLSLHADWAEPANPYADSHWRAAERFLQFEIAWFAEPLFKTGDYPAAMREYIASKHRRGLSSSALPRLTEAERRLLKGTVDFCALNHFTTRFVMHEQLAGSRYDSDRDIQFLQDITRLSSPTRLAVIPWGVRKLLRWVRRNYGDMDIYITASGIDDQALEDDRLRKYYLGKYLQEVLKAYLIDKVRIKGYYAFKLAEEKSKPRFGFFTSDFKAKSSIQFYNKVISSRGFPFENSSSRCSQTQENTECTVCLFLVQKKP
assay_remarks: binding EC50
Exercise: for every item that follows, state its recorded pEC50.
Schema: pEC50 number; meaning minus log10 of the concentration expressed in molar units.

Req: // lookup pEC50 for β-Klotho walked dimer BK_R1c_D05 (designed binder) CAAGQFRCHNSDTCLPGAWVCDGDNDCGDNSDEASCQKRTCHSFNQFECRNGQCIPLHLVCDGVPDCGDNSDETDCGDSHILPFSTPGPST
Resp: 11.00

Req: // lookup pEC50 for β-Klotho walked dimer BK_R1c_D18 (designed binder) CPPDEFQCRGTKKCLPLAWVCDGDNDCEDDSDEESCASAVHTCQSNEFRCRSGRCIPQHWLCDGLNDCGDGSDESQQCSAPASEPPGSL
Resp: 7.67

Req: // lookup pEC50 for β-Klotho walked dimer BK_R1c_D22 (designed binder) CQPDEFTCSSGRCIPQPWLCDGLNDCGDGSDEPPAHCSAPASEPPGSLCRPDEFRCKNGRCIPQTWVCDGEDDCQDSSDETDCESTVRT
Resp: 7.00

Req: // lookup pEC50 for β-Klotho walked dimer BK_R1c_D24 (designed binder) CRPDEFPCRSTGRCVPRRWVCDGVDDCGDNSDESLAHCQTPTCQPDEFTCSSGRCIPQPWLCDGLNDCGDGSDEPPAHCSAPASEPPGSL
Resp: 8.07

The measured values listed here are drawn from patent US20130197191A1.
